Listed here are molecules together with their documented melting point.

Guide cases for melting point, answers given:
| Molecule | melting point |
| --- | --- |
| C[C@@H](CSC(=O)c1ccccc1)C(=O)N1C(=O)N(C)C[C@H]1C(=O)O | 162 °C |
| CC1(C)CCC(C)(C)c2cc(CCc3ncccn3)c(C=O)cc21 | 78 to 84.5 °C |
| CCOC(=O)C1(C(=O)OCC)Oc2c(ccc(OC)c2Cl)C1O (stereo not given) | 116 to 117 °C |
| CCOP(=O)(O)Cc1nnc2c(=O)[nH]c3cc(C(F)(F)F)ccc3n12 | 276 to 280 °C |

Lab note: next molecule to report on.
Lab note: CCOC(=O)c1ncn2c1C(C)N=C(c1ccccc1)c1cc(C#C[Si](C)(C)C)ccc1-2 (stereo not given) gave melting point of 160 to 162 °C
